Measured values drawn from the supplement of paper PMC4466140 for this set.

biological target: ScSho1; test: SPOT peptide array binding signal intensity (averaged, normalized) (arbitrary units (background-subtracted, floor 0; scale differs between SH3 domains)); higher = stronger binding of the SH3 domain to the peptide
Cut-off 300 on SPOT peptide array binding signal intensity, inclusive. At or above means rule met; below means rule not met.

Example results:
// query Tell me whether SPOT peptide array binding signal intensity is at least 300 here: `GRLRPKRIAPWHLIQ`
// result rule not met

// query Tell me whether SPOT peptide array binding signal intensity is at least 300 here: `NNNKMRPHLPPLSSG`
// result rule met

// query Tell me whether SPOT peptide array binding signal intensity is at least 300 here: `KRRTSLFPWLHKPGI`
// result rule met

// query Tell me whether SPOT peptide array binding signal intensity is at least 300 here: `PPPPPPPPPPPLPQS`
// result rule not met

Next:
// query Tell me whether SPOT peptide array binding signal intensity is at least 300 here: `SSAAPPPPPRRATPE`
// result rule not met

// query Tell me whether SPOT peptide array binding signal intensity is at least 300 here: `SKSRLLIELPEGFFT`
// result rule not met

// query Tell me whether SPOT peptide array binding signal intensity is at least 300 here: `LKRITSPPLPPRADS`
// result rule not met

// query Tell me whether SPOT peptide array binding signal intensity is at least 300 here: `SPLGAPPPPPHKDHL`
// result rule not met

// query Tell me whether SPOT peptide array binding signal intensity is at least 300 here: `FSRRQSMDIPSKNRN`
// result rule met

// query Tell me whether SPOT peptide array binding signal intensity is at least 300 here: `RVRKTHVPASKRPSG`
// result rule not met

// query Tell me whether SPOT peptide array binding signal intensity is at least 300 here: `HPRFVSPRIPSRIVK`
// result rule not met
